# ASSAY_SETUP: in DMF, 308.26 K
QUANTITY_NAME: solubility (mole fraction)
Give bare numbers.

For reference, reported solubility (mole fraction) for "N[C@@H](C(=O)O)c1ccc(O)cc1" stands at 6e-05

* * *

# ASSAY_SETUP: in ethanol, 293.24 K
QUANTITY_NAME: solubility (mole fraction)
One number for each entry.

For reference, reported solubility (mole fraction) for "N[C@@H](C(=O)O)c1ccc(O)cc1" stands at 9.37e-05

* * *

# ASSAY_SETUP: in tetrachloromethane, 283.23 K
QUANTITY_NAME: solubility (mole fraction)
Answers are plain numbers.

For reference, reported solubility (mole fraction) for "N[C@@H](C(=O)O)c1ccc(O)cc1" stands at 0.000227

* * *

# ASSAY_SETUP: in tetrachloromethane, 323.19 K
QUANTITY_NAME: solubility (mole fraction)
Numbers only.

For reference, reported solubility (mole fraction) for "N[C@@H](C(=O)O)c1ccc(O)cc1" stands at 0.000272

* * *

# ASSAY_SETUP: in toluene, 288.38 K
QUANTITY_NAME: solubility (mole fraction)
One number for each entry.

For reference, reported solubility (mole fraction) for "N[C@@H](C(=O)O)c1ccc(O)cc1" stands at 0.000165

* * *

# ASSAY_SETUP: in methanol, 298.24 K
QUANTITY_NAME: solubility (mole fraction)
One number for each entry.

For reference, reported solubility (mole fraction) for "N[C@@H](C(=O)O)c1ccc(O)cc1" stands at 0.000424

* * *

# ASSAY_SETUP: in water, 323.21 K
QUANTITY_NAME: solubility (mole fraction)

For reference, reported solubility (mole fraction) for "N[C@@H](C(=O)O)c1ccc(O)cc1" stands at 0.00299

* * *

# ASSAY_SETUP: in methanol, 318.27 K
QUANTITY_NAME: solubility (mole fraction)
Give bare numbers.

For reference, reported solubility (mole fraction) for "N[C@@H](C(=O)O)c1ccc(O)cc1" stands at 0.000429

* * *

# ASSAY_SETUP: in DMF, 288.18 K
QUANTITY_NAME: solubility (mole fraction)

For reference, reported solubility (mole fraction) for "N[C@@H](C(=O)O)c1ccc(O)cc1" stands at 2.67e-05

* * *

# ASSAY_SETUP: in water, 303.29 K
QUANTITY_NAME: solubility (mole fraction)
Give bare numbers.

For reference, reported solubility (mole fraction) for "N[C@@H](C(=O)O)c1ccc(O)cc1" stands at 0.00229

* * *

# ASSAY_SETUP: in methanol, 313.26 K
QUANTITY_NAME: solubility (mole fraction)
Answers are plain numbers.

For reference, reported solubility (mole fraction) for "N[C@@H](C(=O)O)c1ccc(O)cc1" stands at 0.000427

* * *

# ASSAY_SETUP: in tetrachloromethane, 293.36 K
QUANTITY_NAME: solubility (mole fraction)
Numbers only.

For reference, reported solubility (mole fraction) for "N[C@@H](C(=O)O)c1ccc(O)cc1" stands at 0.000234

* * *

# ASSAY_SETUP: in DMF, 313.2 K
QUANTITY_NAME: solubility (mole fraction)
Give bare numbers.

For reference, reported solubility (mole fraction) for "N[C@@H](C(=O)O)c1ccc(O)cc1" stands at 7.04e-05

* * *

# ASSAY_SETUP: in tetrachloromethane, 308.36 K
QUANTITY_NAME: solubility (mole fraction)
Give bare numbers.

For reference, reported solubility (mole fraction) for "N[C@@H](C(=O)O)c1ccc(O)cc1" stands at 0.00025

* * *

# ASSAY_SETUP: in tetrachloromethane, 298.29 K
QUANTITY_NAME: solubility (mole fraction)
One number for each entry.

For reference, reported solubility (mole fraction) for "N[C@@H](C(=O)O)c1ccc(O)cc1" stands at 0.000239

* * *

# ASSAY_SETUP: in water, 283.25 K
QUANTITY_NAME: solubility (mole fraction)
Numbers only.

For reference, reported solubility (mole fraction) for "N[C@@H](C(=O)O)c1ccc(O)cc1" stands at 0.00186

* * *

# ASSAY_SETUP: in water, 293.17 K
QUANTITY_NAME: solubility (mole fraction)

For reference, reported solubility (mole fraction) for "N[C@@H](C(=O)O)c1ccc(O)cc1" stands at 0.00203

* * *

# ASSAY_SETUP: in toluene, 298.23 K
QUANTITY_NAME: solubility (mole fraction)
Answers are plain numbers.

For reference, reported solubility (mole fraction) for "N[C@@H](C(=O)O)c1ccc(O)cc1" stands at 0.000175

* * *

# ASSAY_SETUP: in toluene, 308.39 K
QUANTITY_NAME: solubility (mole fraction)
Numbers only.

For reference, reported solubility (mole fraction) for "N[C@@H](C(=O)O)c1ccc(O)cc1" stands at 0.000189

* * *

# ASSAY_SETUP: in toluene, 293.32 K
QUANTITY_NAME: solubility (mole fraction)

For reference, reported solubility (mole fraction) for "N[C@@H](C(=O)O)c1ccc(O)cc1" stands at 0.000172

* * *

# ASSAY_SETUP: in ethanol, 283.42 K
QUANTITY_NAME: solubility (mole fraction)
Give bare numbers.

For reference, reported solubility (mole fraction) for "N[C@@H](C(=O)O)c1ccc(O)cc1" stands at 9.3e-05

* * *

# ASSAY_SETUP: in methanol, 278.17 K
QUANTITY_NAME: solubility (mole fraction)
One number for each entry.

For reference, reported solubility (mole fraction) for "N[C@@H](C(=O)O)c1ccc(O)cc1" stands at 0.00042

* * *

# ASSAY_SETUP: in water, 318.17 K
QUANTITY_NAME: solubility (mole fraction)
One number for each entry.

For reference, reported solubility (mole fraction) for "N[C@@H](C(=O)O)c1ccc(O)cc1" stands at 0.00279

* * *

# ASSAY_SETUP: in ethanol, 308.39 K
QUANTITY_NAME: solubility (mole fraction)
Numbers only.

For reference, reported solubility (mole fraction) for "N[C@@H](C(=O)O)c1ccc(O)cc1" stands at 9.43e-05

* * *

# ASSAY_SETUP: in ethanol, 278.28 K
QUANTITY_NAME: solubility (mole fraction)
Numbers only.

For reference, reported solubility (mole fraction) for "N[C@@H](C(=O)O)c1ccc(O)cc1" stands at 9.26e-05

* * *

# ASSAY_SETUP: in water, 308.26 K
QUANTITY_NAME: solubility (mole fraction)

For reference, reported solubility (mole fraction) for "N[C@@H](C(=O)O)c1ccc(O)cc1" stands at 0.00244

* * *

# ASSAY_SETUP: in DMF, 318.39 K
QUANTITY_NAME: solubility (mole fraction)
Numbers only.

For reference, reported solubility (mole fraction) for "N[C@@H](C(=O)O)c1ccc(O)cc1" stands at 8.68e-05

* * *

# ASSAY_SETUP: in toluene, 323.27 K
QUANTITY_NAME: solubility (mole fraction)
Answers are plain numbers.

For reference, reported solubility (mole fraction) for "N[C@@H](C(=O)O)c1ccc(O)cc1" stands at 0.000216

* * *

# ASSAY_SETUP: in toluene, 278.28 K
QUANTITY_NAME: solubility (mole fraction)
Give bare numbers.

For reference, reported solubility (mole fraction) for "N[C@@H](C(=O)O)c1ccc(O)cc1" stands at 0.000157

* * *

# ASSAY_SETUP: in tetrachloromethane, 303.21 K
QUANTITY_NAME: solubility (mole fraction)
One number for each entry.

For reference, reported solubility (mole fraction) for "N[C@@H](C(=O)O)c1ccc(O)cc1" stands at 0.000244

* * *

# ASSAY_SETUP: in water, 288.37 K
QUANTITY_NAME: solubility (mole fraction)
Give bare numbers.

For reference, reported solubility (mole fraction) for "N[C@@H](C(=O)O)c1ccc(O)cc1" stands at 0.00194

* * *

# ASSAY_SETUP: in tetrachloromethane, 313.3 K
QUANTITY_NAME: solubility (mole fraction)
One number for each entry.

For reference, reported solubility (mole fraction) for "N[C@@H](C(=O)O)c1ccc(O)cc1" stands at 0.000258

* * *

# ASSAY_SETUP: in water, 313.28 K
QUANTITY_NAME: solubility (mole fraction)
Give bare numbers.

For reference, reported solubility (mole fraction) for "N[C@@H](C(=O)O)c1ccc(O)cc1" stands at 0.00261

* * *

# ASSAY_SETUP: in tetrachloromethane, 278.38 K
QUANTITY_NAME: solubility (mole fraction)
Answers are plain numbers.

For reference, reported solubility (mole fraction) for "N[C@@H](C(=O)O)c1ccc(O)cc1" stands at 0.000225

* * *

# ASSAY_SETUP: in methanol, 308.2 K
QUANTITY_NAME: solubility (mole fraction)
Give bare numbers.

For reference, reported solubility (mole fraction) for "N[C@@H](C(=O)O)c1ccc(O)cc1" stands at 0.000426

* * *

# ASSAY_SETUP: in methanol, 303.32 K
QUANTITY_NAME: solubility (mole fraction)
One number for each entry.

For reference, reported solubility (mole fraction) for "N[C@@H](C(=O)O)c1ccc(O)cc1" stands at 0.000425
